Test system: HEK-293T
Assay: Multiplex assay against HEK293T
Assay type: toxicity, cell-based
Settings: human, 48 h, 1 µM, compound concentration 1 uM
assayReadout: Population Membrane Permeable-Phenotype (%)

>>> numericvalue("Cc1cc(=O)n(C)c2cc(N3C(=O)CC[C@H](NS(=O)(=O)CC(C)C)[C@H]3c3ccc(Cl)cc3)ccc12")
0
>>> numericvalue("Cc1cccc(NC(=O)CN2CCC(c3ccccn3)CC2)c1.Cl.Cl")
0
>>> numericvalue("COc1cc(NC(=O)CCN2CCC(OC(=O)Nc3ccccc3-c3ccccc3)CC2)c(Cl)cc1CNC[C@H](O)c1ccc(O)c2[nH]c(=O)ccc12 [BATEFENTEROL]")
0
>>> numericvalue("CC1(COc2ccc3c(c2)ncn3-c2ccc3cccc(N4CCC(N)CC4)c3n2)COC1 [CRENOLANIB]")
1
